Tested on: SK-MEL-5 melanoma
Experiment: NCI-60 one-dose screen, 48 h (100 = growth as untreated, 0 = no growth, -100 = all killed)
Details: 10 µM unless noted
The panel holds about 83,000 compounds, 20% with a hit somewhere; the sample as a whole holds those more often.
Hi there, I'd appreciate the recorded growth for every entry that follows.
Numbers only, in %.

Please review the entries below; each comes with its answer.
### Prompt What value of measured growth is listed for COc1cc(C2CC(c3ccc(Nc4nc(NCCO)nc(N5CCOCC5)n4)cc3)=NN2c2cc(Cl)cc(Cl)c2)cc(OC)c1OC (configuration not stated) ?
### Response 60.1

### Prompt What value of measured growth is listed for COc1ccc(-c2nsc3c2NC(=O)CC3c2cccc(OC)c2)cc1 (configuration not stated) ?
### Response 31.6

### Prompt What value of measured growth is listed for CCOc1cccc(/C=N\Nc2nc(=O)cc(C(=O)OC)s2)c1O ?
### Response 79.8

### Prompt What value of measured growth is listed for Nc1nc(-c2cnccn2)nn1-c1nc2ccccc2s1 ?
### Response 92.2

### Prompt What value of measured growth is listed for O=C(c1nc2ccccc2[nH]1)C1C(c2ccc(F)cc2)C2CC3CCCCC3N2[C@@]12C(=O)Nc1ccc(Cl)cc12 (some centres not stated) ?
### Response 47.3

Would you be so kind as to report growth for each listed record?
1. Cc1ccc(C2CC(c3ccc(Nc4nc(NCCO)nc(Nc5ccc(Cl)cc5)n4)cc3)=NN2c2cc(Cl)cc(Cl)c2)cc1 (configuration not stated)
2. Cc1nc(Nc2cn[nH]c2C(=O)Nc2ccc(CN3CCN(C)CC3)cc2)c2ccsc2n1

### Response
1. 92.4
2. 90.3
